experiment: Acute toxicity test; settings: mouse, in vivo, po; mice
For each record, write down the corresponding LD50.

In [3]: df
Out[3]:
                                   molecule  endpoint_result
0  CCC(C(=O)C(C)C(O)C(C)C1OC(O)(C(C)C(=O)O)C(C)CC1C)C1OC(C)(C2(O)OC(CC)(C(C)O)CC2C)CC1C (centres unmarked) [5057A]       ≥ 50 mg/kg

Next, consider the following molecule.
Input CCC(C(=O)C(C)C(O)C(C)C1OC(O)(C(C)C(=O)O)C(C)CC1C)C1OC(C)(C2(O)OC(CC)(C(O)CC)CC2C)CC1C (centres unmarked) [5057B] . Output LD50: ≥ 50 mg/kg
